- Test system: Env of HIV-1 strain 231965.c1 (HIV-1)
- Assay explanation: cell-based or functional assay
Test readout: neutralization IC50 (µg/mL)
Quick reminder: number only, in µg/mL, skip the unit.

-- ask Return reported neutralization IC50; argument: 8ANC3040 (antibody, V domains shown) VH: QIHLVQSGTEVKKPGSSVTVSCKAYGVNTFGLYAVNWVRQAPGQSLEYIGQIWRWKSSASHHFRGRVLISAVDLTGSSPPISSLEIKNLTSDDTAVYFCTTTSTYDQWSGLHHDGVMAFSSWGQGTLISVSA VL: DIQMTQSPSTLSASIGDTVRISCRASQSITGNWVAWYQQRPGKAPRLLIYRGAALLGGVPSRFSGSAAGTDFTLTIGNLQAEDFGTFYCQQYDTYPGTFGQGTKVEVKR
-- reply 1.17

-- ask Return reported neutralization IC50; argument: γ52κ61 (antibody, V domains shown) VH: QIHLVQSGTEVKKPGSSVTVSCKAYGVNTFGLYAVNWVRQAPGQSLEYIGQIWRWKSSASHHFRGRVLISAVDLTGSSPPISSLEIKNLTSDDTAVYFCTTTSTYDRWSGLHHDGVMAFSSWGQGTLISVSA VL: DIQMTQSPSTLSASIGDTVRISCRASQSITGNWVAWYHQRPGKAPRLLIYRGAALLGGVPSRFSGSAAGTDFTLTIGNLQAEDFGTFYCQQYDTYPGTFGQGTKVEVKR
-- reply 0.516

-- ask Return reported neutralization IC50; argument: γ23κ11 (antibody, V domains shown) VH: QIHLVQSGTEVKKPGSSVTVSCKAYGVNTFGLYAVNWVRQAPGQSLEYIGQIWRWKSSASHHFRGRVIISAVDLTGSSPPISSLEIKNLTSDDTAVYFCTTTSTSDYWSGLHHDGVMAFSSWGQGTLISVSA VL: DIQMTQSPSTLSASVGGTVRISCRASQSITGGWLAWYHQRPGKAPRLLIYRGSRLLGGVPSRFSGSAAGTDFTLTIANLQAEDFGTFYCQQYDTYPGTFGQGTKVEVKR
-- reply 0.543

-- ask Return reported neutralization IC50; argument: γ23κ5 (antibody, V domains shown) VH: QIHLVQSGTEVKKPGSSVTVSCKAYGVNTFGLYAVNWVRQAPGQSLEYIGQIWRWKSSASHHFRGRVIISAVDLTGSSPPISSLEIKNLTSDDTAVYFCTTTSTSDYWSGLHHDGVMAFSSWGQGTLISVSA VL: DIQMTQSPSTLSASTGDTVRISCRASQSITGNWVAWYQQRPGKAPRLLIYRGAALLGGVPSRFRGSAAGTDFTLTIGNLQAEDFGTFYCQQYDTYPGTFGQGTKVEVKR
-- reply 0.291
